Biological target: T1, mouse DLL4 on cells (mouse, UniProt Q9JI71 27-686)
T1 construct: whole, on cells; also called mouse DLL4-293G; mu DLL4 cells
T1 sequence (Q9JI71 27-686): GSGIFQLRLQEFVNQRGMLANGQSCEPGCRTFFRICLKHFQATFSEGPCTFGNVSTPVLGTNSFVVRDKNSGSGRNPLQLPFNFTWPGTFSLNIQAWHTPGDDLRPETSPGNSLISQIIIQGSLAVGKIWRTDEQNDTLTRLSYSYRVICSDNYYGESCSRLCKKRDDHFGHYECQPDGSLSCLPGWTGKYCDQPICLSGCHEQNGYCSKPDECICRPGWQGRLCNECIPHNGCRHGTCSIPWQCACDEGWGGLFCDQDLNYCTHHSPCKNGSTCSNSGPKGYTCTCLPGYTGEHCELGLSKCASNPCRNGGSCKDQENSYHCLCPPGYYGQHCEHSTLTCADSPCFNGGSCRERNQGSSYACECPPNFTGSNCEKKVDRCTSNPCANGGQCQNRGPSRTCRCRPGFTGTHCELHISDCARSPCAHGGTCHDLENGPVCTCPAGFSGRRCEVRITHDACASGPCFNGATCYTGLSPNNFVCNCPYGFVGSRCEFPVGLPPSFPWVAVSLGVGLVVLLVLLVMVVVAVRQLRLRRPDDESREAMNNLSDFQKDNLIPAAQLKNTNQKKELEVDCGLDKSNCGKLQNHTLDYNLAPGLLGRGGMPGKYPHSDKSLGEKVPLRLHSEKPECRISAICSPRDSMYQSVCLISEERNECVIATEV
Experiment: competition FACS: huNotch-1 to DLL4 cells
pIC50: −log10 of the molar value.

binder: 15D6 chimeric antibody (antibody, human IgG1, V domains shown, also called Chimera of 15D6) VH: EVQLQQSGPELAKPGSSVKISCKASGYTFTSSYISWIKQTTGQGLEYIGYINTGSGGTDYNEKFKDKATLTVDKSSRTVFMQLSSLTPGDSAVYYCAKSILLGSTYYLDYWGQGVMVTVSS VL: DTVLTQSPALAVSLGQRVTISCKASRSLSSPMYSYIYWYQQKLGQQPRLLIYRASTLASGVPARFSGSGSGTDFTLNIDPVEADDIATYFCQQSWSDPFTFGSGTKLEIKR
pIC50: 8.83
